tested on: Horsham soil; assay: Soil microcosm incubation (nitrification of applied ammonium), Horsham soil; conditions: Horsham soil pH 8.8, 25° C., day 14; 10 mol %
metric-name: Nitrified NH4+—N (%) Day 14
# output: bare number, implied unit %

The cases that follow already have their Nitrified NH4+—N (%) Day 14 on record.
[[record]]
molecule = "C#CCCn1cc(CCC)nn1"
metric_name = "Nitrified NH4+—N (%) Day 14"
units_of_measure = "%"
value_observed = 35.1

[[record]]
molecule = "CCCCc1cn(CCOC)nn1"
metric_name = "Nitrified NH4+—N (%) Day 14"
units_of_measure = "%"
value_observed = 84.3

[[record]]
molecule = "CCCCn1cc(CCC)nn1"
metric_name = "Nitrified NH4+—N (%) Day 14"
units_of_measure = "%"
value_observed = 40.0

[[record]]
molecule = "CCCc1cn(CCC)nn1"
metric_name = "Nitrified NH4+—N (%) Day 14"
units_of_measure = "%"
value_observed = 44.2

[[record]]
molecule = "Cc1c[nH]nc1C.O=P(O)(O)O [DMPP, 3,4-dimethylpyrazole phosphate, reference compound]"
metric_name = "Nitrified NH4+—N (%) Day 14"
units_of_measure = "%"
value_observed = 37.2


Continue with the molecule presented below.
Hello, I am looking for reported Nitrified NH4+—N (%) Day 14 with Horsham soil for `CCCCc1cn(CCCC)nn1` . Could you help? 44.5

---

test system: Horsham soil; assay: Soil microcosm incubation (nitrification of applied ammonium), Horsham soil; settings: Horsham soil pH 8.8, 35° C., day 7; 10 mol %
Each entry below carries its recorded Nitrified NH4+—N (%) Day 7.
Number in %, nothing else.

[[record]]
compound = "CCCCn1cc(CCC)nn1"
units_of_measure = "%"
value_observed = 18.7

[[record]]
compound = "CCCCc1cn(CCOC)nn1"
units_of_measure = "%"
value_observed = 15.7

[[record]]
compound = "C#CCCn1cc(CCC)nn1"
units_of_measure = "%"
value_observed = 8.5


Can you look up the measured Nitrified NH4+—N (%) Day 7 of `CCCCc1cn(CCCC)nn1` for me? 8.8

Give the measured Nitrified NH4+—N (%) Day 7 of Cc1c[nH]nc1C.O=P(O)(O)O [DMPP, 3,4-dimethylpyrazole phosphate, reference compound] . 18.9

Entry `CCCc1cn(CCC)nn1` has what Nitrified NH4+—N (%) Day 7? 22.3

---

Tested on: Dahlen soil
Experiment: Soil microcosm incubation (nitrification of applied ammonium), Dahlen soil
Conditions: Table 5, Dahlen soil pH 7.3, 25° C., day 21; 10 mol %
Description: The soil used in this study was collected from four different locations in Victoria, Australia: (i) a wheat cropping soil from Horsham (36° 45′S, 142° 07′ E), (ii) a rotational cropping soil from Dahlen (36° 37′S, 142° 09′ E), (iii) a vegetable growing soil from Clyde (38° 08′S, 145° 20′ E), and (iv) a pasture soil from Terang (38° 15′S, 142° 52′E). […] The water content of the soil was calculated before commencing each experiment, from samples that were oven-dried to constant weight. […]
Nitrified NH4+—N (%) Day 21: recorded values
Quick note: give the figure in %, leave out the unit.

// solved cases for Nitrified NH4+—N (%) Day 21 follow
[[record]]
compound = "C=CCOC(=O)Cn1cc(CCC)nn1 [Compound 20]"
value_observed = 26.0

[[record]]
compound = "Cc1c[nH]nc1C.O=P(O)(O)O [DMPP, 3,4-dimethylpyrazole phosphate, reference compound]"
value_observed = 28.7

[[record]]
compound = "C#CCNC(=O)Cn1cc(CCC)nn1 [Compound 23]"
value_observed = 35.9


Kindly review the next compound as well.
Which measured Nitrified NH4+—N (%) Day 21 value corresponds to C=CCn1cc(CCC)nn1 [Compound 18] ? 32.1

---

test system: Horsham soil; assay: Soil microcosm incubation (nitrification of applied ammonium), Horsham soil; details: Horsham soil pH 8.8, 25° C., day 28; 10 mol %
metric-name: Nitrified NH4+—N (%) Day 28
Response body: numeric value in %, unit text excluded.

Observe how each entry below is paired with its result.
[[record]]
compound = "C#CCCn1cc(CCC)nn1"
units_of_measure = "%"
value_observed = 65.8

[[record]]
compound = "CCCCc1cn(CCCC)nn1"
units_of_measure = "%"
value_observed = 90.4

[[record]]
compound = "CCCCn1cc(CCC)nn1"
units_of_measure = "%"
value_observed = 72.2

[[record]]
compound = "CCCCc1cn(CCOC)nn1"
units_of_measure = "%"
value_observed = 100

[[record]]
compound = "Cc1c[nH]nc1C.O=P(O)(O)O [DMPP, 3,4-dimethylpyrazole phosphate, reference compound]"
units_of_measure = "%"
value_observed = 76.2


Pending compound:
What value of Nitrified NH4+—N (%) Day 28 has been reported for the following compound? `CCCc1cn(CCC)nn1` 70.9
